The following compounds are listed with their measured selectivity ratio values.
# ASSAY_METHOD_TEXT: Selectivity index, ratio of IC50 for human THP1 cells to IC50 for intracellular amastigote stage of Leishmania donovani MHOM/ET/67/HU3
# Type: toxicity, cell-based, THP-1
# CONDITION_SUMMARY: read-out: Selectivity Index
When you answer, write just the number.

COMPOUND_SMILES	selectivity ratio
COc1ccc(-c2ccc(CN3C4=NCCN4c4ccccc43)cc2)cc1	2.25
CC(C)(C)c1ccc(CN2C3=NCCN3c3cc(Cl)ccc32)cc1	1.71
C[C@@H]1[C@H](O)[C@@H](C)/C=C/C=C/C=C/C=C/C=C/C=C/C=C/[C@H](O[C@@H]2O[C@H](C)[C@@H](O)[C@H](N)[C@@H]2O)C[C@@H]2O[C@](O)(C[C@@H](O)C[C@@H](O)[C@H](O)CC[C@@H](O)C[C@@H](O)CC(=O)O[C@H]1C)C[C@H](O)[C@H]2C(=O)O	30.2
FC(F)(F)c1ccc(-c2ccc(CN3C4=NCCN4c4ccccc43)cc2)cc1	2.91

Query: selectivity ratio; subject: Clc1ccc(-c2ccc(CN3C4=NCCN4c4ccccc43)cc2)cc1 1.46
